experiment: inhibition of 3D7 malaria parasite growth – strain 3D7 (AID 2306);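 further: 0% = DMSO wells and 100% = chloroquine plus artemisinin control wells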; settings: P. falciparum 3D7 erythrocytic growth, LDH absorbance, 72 h; at 2 µM; stronger effect = higher value
Recorded growth inhibition for the following compounds
Property Measured: growth inhibition (%)

>>> measured_value("O=C(Nc1nc2cc(S(=O)(=O)NCCCN3CCOCC3)ccc2n1CCCn1ccnc1)c1ccc(Cl)cc1")
95
>>> measured_value("CN(Cc1cccc(F)c1)C1CCN(c2cc(NC(=O)c3cccc(F)c3)ccn2)CC1")
94
>>> measured_value("COc1ccc([N+](=O)[O-])cc1N(Cc1ccccc1-c1ccccc1)S(=O)(=O)c1ccc(C(F)(F)F)cc1[N+](=O)[O-]")
88
>>> measured_value("COc1ccc2nccc([C@@H](O)CN3CCC(NC(=O)/C=C/c4cccc(C)c4)CC3)c2c1")
84

Hello, the source for this data is PubChem BioAssay, in case you need it.
